# Tested on: 415267-285-R-J2-PDC complex spheroid viability
# experimental details: Anticancer human tumor 415267-285-R-J2-PDC patient-derived breast carcinoma cell line growth inhibition [POLQ]; active = viability on the fitted dose curve at most 10% of control; inactive = the rest
# measurement context: second compound 1 µM; first compound 0.316 µM
Please answer using one outcome listed in active, inactive

Solved entries:
- CC1COCCN1c1cc(C2(O)CC3CCC(C2)O3)c2cnn(-c3ccn[nH]3)c2n1 (stereo not given) + Cc1cccc(N(C)C(=O)C2C(O)CCN2c2nc(C)cc(C(F)(F)F)c2C#N)c1: active
- C#Cc1c(F)ccc2cc(O)cc(-c3ncc4c(N5CC6CCC(C5)N6)nc(OCC56CCCN5CC(F)C6)nc4c3F)c12 (stereo not given) + Nc1ccc(C#CCN(C(=O)Cc2ncc(C(F)(F)F)cc2C(F)(F)F)c2ccc(F)cc2)nn1: inactive
- COc1cc(C2c3cc4c(cc3C(OC3OC5COC(C)OC5C(O)C3O)C3COC(=O)C23)OCO4)cc(OC)c1O (stereo not given) + COC1C(OC(N)=O)C(O)C(Oc2ccc3c(O)c(NC(=O)c4ccc(O)c(CC=C(C)C)c4)c(=O)oc3c2C)OC1(C)C: inactive
- CCCS(=O)(=O)Nc1ccc(F)c(C(=O)c2c[nH]c3ncc(-c4ccc(Cl)cc4)cc23)c1F + Nc1ccc(C#CCN(C(=O)Cc2ncc(C(F)(F)F)cc2C(F)(F)F)c2ccc(F)cc2)nn1: inactive

Please turn your attention to the following entry.
Q: For this compound, state the assay outcome: CCc1cc2c(N3CCc4c(cc(Cn5ccnc5)cc4-c4cn(C)nc4C(F)(F)F)C3=O)ccnc2c(OC)n1 + Cc1cccc(N(C)C(=O)C2C(O)CCN2c2nc(C)cc(C(F)(F)F)c2C#N)c1
Result: inactive

###

# System: 415267-285-R-J2-PDC complex spheroid viability
# experimental details: Anticancer human tumor 415267-285-R-J2-PDC cell line growth inhibition [POLQ]; active = viability on the fitted dose curve at most 10% of control; inactive = the rest;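 note: luminescence used as stand-in measure of viable cells; spheroids exposed to compounds for one week before readout; 100% = DMSO vehicle control viability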
# measurement context: second compound 1 µM; first compound 10 µM
Please answer using one outcome listed in True for active, False for inactive

Solved entries:
* C=CC(=O)N1CCN(c2nc(=O)n(-c3c(C)ccnc3C(C)C)c3nc(-c4c(O)cccc4F)c(F)cc23)C(C)C1 (stereo not drawn) + Nc1ccc(C#CCN(C(=O)Cc2ncc(C(F)(F)F)cc2C(F)(F)F)c2ccc(F)cc2)nn1 | False
* CC1COCCN1c1cc(C2(S(C)(=N)=O)CC2)nc(-c2ccnc3[nH]ccc23)n1 (stereo not drawn) + Cc1cccc(N(C)C(=O)C2C(O)CCN2c2nc(C)cc(C(F)(F)F)c2C#N)c1 | True

Please turn your attention to the following entry.
Q: For this compound, state the assay outcome: CCc1cc2c(N3CCc4c(cc(Cn5ccnc5)cc4-c4cn(C)nc4C(F)(F)F)C3=O)cc(C)nc2c(OC)n1 + Nc1ccc(C#CCN(C(=O)Cc2ncc(C(F)(F)F)cc2C(F)(F)F)c2ccc(F)cc2)nn1
Result: False

###

Readings of viability, T/C for the listed compounds
# Test system: 415267-285-R-J2-PDC complex spheroid viability
# experimental details: Anticancer human tumor 415267-285-R-J2-PDC cell line growth inhibition [POLQ];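 note: luminescence used as stand-in measure of viable cells; spheroids exposed to compounds for one week before readout; 100% = DMSO vehicle control viability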
# measurement context: second compound 1 µM; first compound 0.316 µM; hits give low values
All answers are understood in %, so give the number only.

Worked examples follow.
* O=c1[nH]cc(F)c(=O)[nH]1 + Nc1ccc(C#CCN(C(=O)Cc2ncc(C(F)(F)F)cc2C(F)(F)F)c2ccc(F)cc2)nn1 | 49.1
* CCCS(=O)(=O)Nc1ccc(F)c(C(=O)c2c[nH]c3ncc(-c4ccc(Cl)cc4)cc23)c1F + Cc1cccc(N(C)C(=O)C2C(O)CCN2c2nc(C)cc(C(F)(F)F)c2C#N)c1 | 102
* COc1cc(C2c3cc4c(cc3C(OC3OC5COC(C)OC5C(O)C3O)C3COC(=O)C23)OCO4)cc(OC)c1O (stereo unspecified) + Nc1ccc(C#CCN(C(=O)Cc2ncc(C(F)(F)F)cc2C(F)(F)F)c2ccc(F)cc2)nn1 | 15
* O=c1[nH]cc(F)c(=O)[nH]1 + Cc1cccc(N(C)C(=O)C2C(O)CCN2c2nc(C)cc(C(F)(F)F)c2C#N)c1 | 36.7
* CC1COCCN1c1cc(-c2ccnn2C)c2ccnc(-c3ccn[nH]3)c2n1 (stereo unspecified) + Nc1ccc(C#CCN(C(=O)Cc2ncc(C(F)(F)F)cc2C(F)(F)F)c2ccc(F)cc2)nn1 | 4.69
* C=CCn1c(=O)c2cnc(Nc3ccc(N4CCN(C)CC4)cc3)nc2n1-c1cccc(C(C)(C)O)n1 + Cc1cccc(N(C)C(=O)C2C(O)CCN2c2nc(C)cc(C(F)(F)F)c2C#N)c1 | 76.1
* CNCc1ccc(-c2[nH]c3cc(F)cc4c3c2CCNC4=O)cc1 + COC1C(OC(N)=O)C(O)C(Oc2ccc3c(O)c(NC(=O)c4ccc(O)c(CC=C(C)C)c4)c(=O)oc3c2C)OC1(C)C | 97.8
* C#Cc1c(F)ccc2cc(O)cc(-c3ncc4c(N5CC6CCC(C5)N6)nc(OCC56CCCN5CC(F)C6)nc4c3F)c12 (stereo unspecified) + COC1C(OC(N)=O)C(O)C(Oc2ccc3c(O)c(NC(=O)c4ccc(O)c(CC=C(C)C)c4)c(=O)oc3c2C)OC1(C)C | 91.2

Q: Record lookup: for 415267-285-R-J2-PDC complex spheroid viability, what viability, T/C belongs to O=C(Nc1ccc(O)c(NS(=O)(=O)c2ccc(F)cc2)c1)c1ccc(-c2ccccc2)cc1 + Nc1ccc(C#CCN(C(=O)Cc2ncc(C(F)(F)F)cc2C(F)(F)F)c2ccc(F)cc2)nn1 ?
Result: 89.6

Q: Record lookup: for 415267-285-R-J2-PDC complex spheroid viability, what viability, T/C belongs to Nc1ccn(C2OC(CO)C(O)C2(F)F)c(=O)n1 (stereo unspecified) + Cc1cccc(N(C)C(=O)C2C(O)CCN2c2nc(C)cc(C(F)(F)F)c2C#N)c1 ?
Result: 5.2

Q: Record lookup: for 415267-285-R-J2-PDC complex spheroid viability, what viability, T/C belongs to COc1cc2cc(C(=O)CCC(=O)O)sc2cc1OC + Nc1ccc(C#CCN(C(=O)Cc2ncc(C(F)(F)F)cc2C(F)(F)F)c2ccc(F)cc2)nn1 ?
Result: 96.6
